- experimental-target: human CYP11B1 (Homo sapiens, UniProt P15538)
- Sequence (P15538 25-503): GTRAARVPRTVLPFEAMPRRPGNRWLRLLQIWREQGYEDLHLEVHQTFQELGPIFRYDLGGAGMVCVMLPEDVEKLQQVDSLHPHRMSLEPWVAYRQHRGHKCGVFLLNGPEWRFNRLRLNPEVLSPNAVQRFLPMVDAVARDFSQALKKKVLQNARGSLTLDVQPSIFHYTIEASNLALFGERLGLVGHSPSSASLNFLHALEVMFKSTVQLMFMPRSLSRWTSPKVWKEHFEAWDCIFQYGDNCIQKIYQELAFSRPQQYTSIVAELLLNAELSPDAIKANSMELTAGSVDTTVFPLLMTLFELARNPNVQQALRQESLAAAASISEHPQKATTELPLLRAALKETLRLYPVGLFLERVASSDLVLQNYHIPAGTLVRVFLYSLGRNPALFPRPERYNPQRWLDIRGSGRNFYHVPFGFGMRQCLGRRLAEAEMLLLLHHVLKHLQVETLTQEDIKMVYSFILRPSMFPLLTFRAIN
- assay-overview: Inhibition of hCYP11B1 in transfected V79 cells
- test-settings: hamster V79 cells expressing human CYP11B1; substrate 11-deoxycortisol 200 nM
Flag rule - IC50 less than 40 nM flags Criterion met; the remaining entries get Criterion not met.

{"molecule": "N#Cc1ccc(-c2cncc3c2SCCN3Cc2cccc([N+](=O)[O-])c2)cc1", "class-name": "Criterion not met"}
{"molecule": "COc1cccc(C(=O)N2CCc3c(N4CCN(C#N)CC4)cncc32)c1", "class-name": "Criterion not met"}
{"molecule": "N#Cc1ccc(-c2cncc3c2ccn3C(=O)c2c(F)c(F)c(F)c(F)c2F)cc1", "class-name": "Criterion met"}
{"molecule": "N#Cc1ccc(-c2cncc3c2OCCN3C(=O)CCc2cccc(C(F)(F)F)c2)cc1", "class-name": "Criterion not met"}
{"molecule": "O=C(C1CN(Cc2cccc(F)c2)C1)N1CCc2c(-c3cc4cc(Cl)ccc4[nH]3)cncc21", "class-name": "Criterion not met"}
{"molecule": "N#Cc1ccc(-c2cncc3c2OCCN3C(=O)C2CCN(S(=O)(=O)c3cccc(F)c3)CC2)cc1", "class-name": "Criterion not met"}
{"molecule": "Cc1cccc(CC(=O)N2CCOc3c(-c4ccc(C#N)cc4)cncc32)c1", "class-name": "Criterion not met"}
{"molecule": "N#Cc1ccc(-c2cncc3c2CCN3C(=O)Cc2ccc(Cl)cc2)cc1", "class-name": "Criterion not met"}
{"molecule": "Cn1cnc2cncc(-c3ccc(C#N)cc3)c21", "class-name": "Criterion not met"}
{"molecule": "N#Cc1ccc(S(=O)(=O)N2CCSc3c(-c4ccc5nc[nH]c5c4)cncc32)cc1", "class-name": "Criterion met"}
{"molecule": "N#Cc1ccc(-c2cncc3c2CCN3C(=O)CCl)cc1", "class-name": "Criterion not met"}
{"molecule": "N#Cc1ccc(-c2cncc3c2ccn3S(=O)(=O)c2ccc([N+](=O)[O-])cc2)cc1 [E1]", "class-name": "Criterion met"}
{"molecule": "N#Cc1ccc(-c2cncc3c2CCN3C(=O)c2ccc(F)cc2)cc1", "class-name": "Criterion not met"}
{"molecule": "N#Cc1ccc(-c2cncc3c2SCCN3S(=O)(=O)c2ccc3ccccc3c2)cc1", "class-name": "Criterion met"}
{"molecule": "N#Cc1ccc(-c2cncc3c2ccn3S(=O)(=O)c2ccc(F)cc2)cc1", "class-name": "Criterion met"}
{"molecule": "N#Cc1ccc2cc(-c3cncc4c3OCCN4C(=O)C3CN(Cc4cccc(F)c4)C3)[nH]c2c1", "class-name": "Criterion not met"}
{"molecule": "N#Cc1ccc(-c2cncc3c2SCC(=O)N3)cc1", "class-name": "Criterion not met"}
{"molecule": "N#Cc1ccc(-c2cncc3c2OCCN3C(=O)Cc2ccc(C(F)(F)F)cc2)cc1", "class-name": "Criterion not met"}
{"molecule": "N#Cc1ccc(-c2cncc3c2SCCN3S(=O)(=O)c2ccc([N+](=O)[O-])cc2)cc1", "class-name": "Criterion met"}
{"molecule": "N#Cc1ccc(-c2cncc3c2OCCN3S(=O)(=O)c2cccc(F)c2)cc1", "class-name": "Criterion met"}
{"molecule": "N#Cc1ccc(-c2cncc3c2SCCN3C(=O)c2ccc(C(F)(F)F)cc2)cc1", "class-name": "Criterion not met"}
{"molecule": "N#Cc1ccc(-c2cncc3c2OCCN3C(=O)Cc2cccc(Cl)c2)cc1", "class-name": "Criterion not met"}
{"molecule": "N#Cc1ccc(-c2cncc3c2OCCN3C(=O)c2cccnc2)cc1", "class-name": "Criterion not met"}

###

- experimental-target: human CYP11B1 (Homo sapiens, UniProt P15538)
- assay-overview: Inhibition of hCYP11B1 in transfected V79 cells
- test-settings: hamster V79 cells expressing human CYP11B1; substrate 11-deoxycortisol 200 nM
pIC50: −log10 of the molar value.
observed-property: pIC50

{"compound": "COc1ccc(S(=O)(=O)N2CCSc3c(-c4cccc(F)c4)cncc32)cc1 [S31]", "experimental-target": "human CYP11B1 (Homo sapiens, UniProt P15538)", "observed-property": "pIC50", "bound-operator": "=", "result-value": 6.87}
{"compound": "N#Cc1ccc(S(=O)(=O)N2CCOc3c(-c4ccc5c(c4)NC(=O)C5)cncc32)cc1 [O132]", "experimental-target": "human CYP11B1 (Homo sapiens, UniProt P15538)", "observed-property": "pIC50", "bound-operator": "=", "result-value": 6.77}
{"compound": "N#Cc1ccc(-c2cncc3c2OCCN3S(=O)(=O)c2ccc(C#N)cc2)cc1 [O130]", "experimental-target": "human CYP11B1 (Homo sapiens, UniProt P15538)", "observed-property": "pIC50", "bound-operator": "=", "result-value": 7.01}
{"compound": "O=C(c1ccccc1F)N1CCc2c(-c3cc4ccccc4o3)cncc21 [C60]", "experimental-target": "human CYP11B1 (Homo sapiens, UniProt P15538)", "observed-property": "pIC50", "bound-operator": "<", "result-value": 5.00}
{"compound": "N#Cc1ccc(-c2cncc3c2OCCN3C(=O)C2CN(C(=O)c3ccc(F)cc3)C2)cc1 [O57]", "experimental-target": "human CYP11B1 (Homo sapiens, UniProt P15538)", "observed-property": "pIC50", "bound-operator": "=", "result-value": 6.99}
{"compound": "O=C(c1ccccc1F)N1CCc2c(-c3cc4ccccc4[nH]3)cncc21 [C59]", "experimental-target": "human CYP11B1 (Homo sapiens, UniProt P15538)", "observed-property": "pIC50", "bound-operator": "=", "result-value": 5.56}
{"compound": "N#Cc1ccc(-c2cncc3c2ccn3S(=O)(=O)c2cccc(F)c2)cc1 [E12]", "experimental-target": "human CYP11B1 (Homo sapiens, UniProt P15538)", "observed-property": "pIC50", "bound-operator": "=", "result-value": 9.30}
{"compound": "COc1ccc(C(=O)N2CCSc3c(-c4ccc(C#N)cc4)cncc32)cc1 [S6]", "experimental-target": "human CYP11B1 (Homo sapiens, UniProt P15538)", "observed-property": "pIC50", "bound-operator": "=", "result-value": 5.76}
{"compound": "COc1cccc(CC(=O)N2CCOc3c(-c4ccc(C#N)cc4)cncc32)c1 [O41]", "experimental-target": "human CYP11B1 (Homo sapiens, UniProt P15538)", "observed-property": "pIC50", "bound-operator": "=", "result-value": 7.28}
{"compound": "N#Cc1ccc(-c2cncc3c2SCCN3S(=O)(=O)c2ccc(F)cc2)cc1 [S10]", "experimental-target": "human CYP11B1 (Homo sapiens, UniProt P15538)", "observed-property": "pIC50", "bound-operator": "=", "result-value": 9.10}
{"compound": "N#Cc1ccc(-c2cncc3ncn(C4CC4)c23)cc1 [N7]", "experimental-target": "human CYP11B1 (Homo sapiens, UniProt P15538)", "observed-property": "pIC50", "bound-operator": "=", "result-value": 6.34}

###

pIC50 values by entry
- experimental-target: human CYP11B2 (Homo sapiens)
- Sequence (P19099 25-503): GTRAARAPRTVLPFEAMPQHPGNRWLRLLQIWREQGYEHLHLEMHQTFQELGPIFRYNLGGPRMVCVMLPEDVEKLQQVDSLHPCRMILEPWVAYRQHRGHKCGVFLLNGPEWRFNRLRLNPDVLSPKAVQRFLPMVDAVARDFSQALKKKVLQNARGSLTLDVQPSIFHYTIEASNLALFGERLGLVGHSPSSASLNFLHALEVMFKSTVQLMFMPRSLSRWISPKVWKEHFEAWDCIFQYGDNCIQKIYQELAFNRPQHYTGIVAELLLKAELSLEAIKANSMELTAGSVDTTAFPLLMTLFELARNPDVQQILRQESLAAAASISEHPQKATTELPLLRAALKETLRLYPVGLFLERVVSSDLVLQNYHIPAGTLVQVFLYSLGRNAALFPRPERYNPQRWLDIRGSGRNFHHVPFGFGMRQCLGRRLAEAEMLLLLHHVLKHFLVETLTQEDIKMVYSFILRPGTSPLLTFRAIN
- assay-overview: Inhibition of hCYP11B2 in transfected V79 cells
- test-settings: hamster V79 cells expressing human CYP11B2; substrate 11-deoxycorticosterone 200 nM
pIC50: −log10 of the molar value.
observed-property: pIC50

{"molecule": "N#Cc1ccc(-c2cncc3c2OCCN3C(=O)C2CN(S(=O)(=O)c3cccc(C#N)c3)C2)cc1 [O68]", "observed-property": "pIC50", "result-value": 9.15}
{"molecule": "COc1ccccc1C(=O)N1CCc2c(-c3ccc(C#N)cc3)cncc21", "observed-property": "pIC50", "result-value": 7.66}
{"molecule": "N#Cc1ccc(-c2cncc3c2CCN3C(=O)Cc2ccccc2[N+](=O)[O-])cc1", "observed-property": "pIC50", "result-value": 7.92}
{"molecule": "N#Cc1ccc(-c2cncc3c2OCCN3C(=O)c2ccc(Oc3ccc(F)cc3)s2)cc1", "observed-property": "pIC50", "result-value": 8.44}

###

- experimental-target: human CYP11B1 (Homo sapiens, UniProt P15538)
- assay-overview: Inhibition of hCYP11B1 in transfected V79 cells
- test-settings: hamster V79 cells expressing human CYP11B1; substrate 11-deoxycortisol 200 nM
IC50 values by entry

{"molecule": "Cn1c(=O)c(=O)[nH]c2cncc(-c3ccc(C#N)cc3)c21 [N1]", "IC50": "409 nM"}
{"molecule": "COc1ccc(S(=O)(=O)N2CCSc3c(-c4cccs4)cncc32)cc1 [S37]", "IC50": "84 nM"}
{"molecule": "COc1ccc(S(=O)(=O)N2CCSc3c(-c4ccc(C#N)cc4)cncc32)cc1 [S13]", "IC50": "1.2 nM"}
{"molecule": "COc1cccc(C(=O)n2ccc3c(-c4ccc(C#N)cc4)cncc32)c1 [E24]", "IC50": "82 nM"}
{"molecule": "N#Cc1ccc(-c2cncc3c2CCN3C(=O)c2cccc(F)c2)cc1 [C28]", "IC50": "310 nM"}
{"molecule": "N#CN1CCN(c2cncc3c2OCCN3C(=O)C2CN(Cc3cccc(F)c3)C2)CC1 [O98]", "IC50": "677 nM"}
{"molecule": "N#CC1CN(S(=O)(=O)N2CCSc3c(-c4cc5cc(Cl)ccc5o4)cncc32)C1 [S101]", "IC50": "2670 nM"}
{"molecule": "COc1ccc(S(=O)(=O)N2CCSc3c(-c4cccc(Cl)c4)cncc32)cc1 [S29]", "IC50": "7.3 nM"}
{"molecule": "O=C(c1ccc(F)cc1)n1ccc2c(-c3ccc4ncsc4c3)cncc21 [E36]", "IC50": "1980 nM"}
{"molecule": "O=C(c1ccccc1F)N1CCc2c(-c3ccc4ncsc4c3)cncc21 [C58]", "IC50": "2640 nM"}
{"molecule": "N#Cc1ccc(-c2cncc3c2CCN3C(=O)c2cccnc2)cc1 [C29]", "IC50": "185 nM"}
{"molecule": "N#Cc1ccc(-c2cncc3c2OCCN3C(=O)c2ccccc2F)cc1 [O21]", "IC50": "1130 nM"}
{"molecule": "N#Cc1ccc(-c2cncc3c2ccn3C(=O)c2ccc(C(F)(F)F)cc2)cc1 [E20]", "IC50": "65 nM"}
{"molecule": "N#Cc1ccc(-c2cncc3c2CCN3S(=O)(=O)c2cccc(Cl)c2)cc1 [C14]", "IC50": "0.9 nM"}
{"molecule": "N#Cc1ccc(-c2cncc3c2OCCN3C(=O)c2cccc(C(F)(F)F)c2)cc1 [O25]", "IC50": "476 nM"}
{"molecule": "N#Cc1ccc(-c2cncc3c2OCCN3C(=O)c2ccc(C(F)(F)F)cc2)cc1 [O24]", "IC50": "85.6 nM"}
{"molecule": "COc1cccc(C(=O)N2CCc3c(C4=CCN(C#N)CC4)cncc32)c1 [C82]", "IC50": "537 nM"}
{"molecule": "N#Cc1ccc(-c2cncc3c2CCN3C(=O)Cc2ccc(F)cc2)cc1 [C69]", "IC50": "134 nM"}
{"molecule": "N#Cc1ccc(-c2cncc3c2CCN3C(=O)c2cccc(Cl)c2)cc1 [C39]", "IC50": "298 nM"}
{"molecule": "COc1cccc(C(=O)N2CCc3c(-c4ccc(C#N)cc4)cncc32)c1 [C26]", "IC50": "356 nM"}

Data provenance: patent US20260092074A1
